# PROTOCOL: Antiproliferative activity against human Skov3 NTRneo cells after 18 hrs
# Type: functional, cell-based
# MEASUREMENT PARAMETERS: SK-OV-3, 18 h
Each entry below carries its recorded pIC50.
Remember the convention: pIC50 equals -log10 of concentration in molar.

                                   molecule  assay_metric  observed_value
0  O=C(NCCn1ccnc1)c1cc(N(CCCl)CCCl)c([N+](=O)[O-])cc1[N+](=O)[O-]         pIC50            5.39
1  NC(=O)c1cc(N(CCBr)CCBr)c([N+](=O)[O-])cc1[N+](=O)[O-]         pIC50            6.48
2  O=C(O)CCNC(=O)c1cc(N(CCBr)CCBr)c([N+](=O)[O-])cc1[N+](=O)[O-]         pIC50            5.12
3  CS(=O)(=O)NC(=O)c1cc(N(CCCl)CCCl)c([N+](=O)[O-])cc1[N+](=O)[O-]         pIC50            3.80
4  NC(=O)c1cc(N(CCI)CCI)c([N+](=O)[O-])cc1[N+](=O)[O-]         pIC50            6.37

Input: Recorded pIC50 for `O=C(O)CCNC(=O)c1cc(N(CCCl)CCCl)c([N+](=O)[O-])cc1[N+](=O)[O-]` , please?
Output: 3.19

Input: May I ask what pIC50 has been recorded for `NC(=O)c1cc(N2CC2)c([N+](=O)[O-])cc1[N+](=O)[O-]` ?
Output: 6.19

---

Each entry below carries its reported MTD.
# PROTOCOL: Toxicity in ip dosed CD1 nude mouse in DMSO
# Format: organism-based
# MEASUREMENT PARAMETERS: in vivo

Answered examples (3):
                                smiles_code  assay_metric  observed_value
0  NC(=O)c1cc(N(CCCl)CCBr)c([N+](=O)[O-])cc1[N+](=O)[O-]           MTD     237 µmol/kg
1  O=C(NO)c1cc(N(CCCl)CCCl)c([N+](=O)[O-])cc1[N+](=O)[O-]           MTD     133 µmol/kg
2  CS(=O)(=O)OCCN(CCCl)c1cc(C(N)=O)c([N+](=O)[O-])cc1[N+](=O)[O-]           MTD    1000 µmol/kg

Input: Data request, read-out MTD, for `CS(=O)(=O)OCCN(CCOS(C)(=O)=O)c1cc(C(N)=O)c([N+](=O)[O-])cc1[N+](=O)[O-]`
Output: 2000 µmol/kg

Input: For `NC(=O)c1cc(N(CCBr)CCBr)c([N+](=O)[O-])cc1[N+](=O)[O-]` , what is its reported MTD?
Output: > 1330 µmol/kg

---

# Tested on: WiDr
# PROTOCOL: Antiproliferative activity against human WiDr NTRneo cells after 18 hrs
# Format: functional, cell-based
# pIC50 per entry
Please keep in mind that pIC50 is minus log10 of the molar concentration; only the number is needed.

Input: Form field - read-out: pIC50; system: WiDr; submitted item: `O=C(NC(CO)(CO)CO)c1cc(N(CCCl)CCCl)c([N+](=O)[O-])cc1[N+](=O)[O-]`
Output: 5.01

Input: Under WiDr: pIC50 value of `O=C(NCCCn1ccnc1)c1cc(N(CCCl)CCCl)c([N+](=O)[O-])cc1[N+](=O)[O-]` ?
Output: 4.43

Input: Request - read-out pIC50 | tested on WiDr | molecule `NC(=O)c1cc(N(CCOS(N)(=O)=O)CCOS(N)(=O)=O)c([N+](=O)[O-])cc1[N+](=O)[O-]`
Output: 5.72

Input: Short answer please: pIC50, WiDr, entry `NC(=O)c1cc(N(CCCl)CCCl)c([N+](=O)[O-])cc1[N+](=O)[O-]`
Output: 5.02

Input: Lab note: need pIC50 for `O=C(NCCO)c1cc(N(CCCl)CCCl)c([N+](=O)[O-])cc1[N+](=O)[O-]` on WiDr, anyone have it?
Output: 5.00

Input: Missing value: pIC50, WiDr, entry `CS(=O)(=O)OCCN(CCBr)c1cc(C(N)=O)c([N+](=O)[O-])cc1[N+](=O)[O-]` . Fill in?
Output: 6.66

Input: Item: `CS(=O)(=O)OCCN(CCI)c1cc(C(N)=O)c([N+](=O)[O-])cc1[N+](=O)[O-]` Test system: WiDr Read-out: pIC50 Value: ?
Output: 6.39

Input: State its pIC50 on WiDr: `O=C(NO)c1cc(N(CCCl)CCCl)c([N+](=O)[O-])cc1[N+](=O)[O-]`
Output: 5.70

---

# PROTOCOL: Solubility in alpha MEM
# Format: physicochemical
Label scheme, based on solubility: 1 (below 1000 µM), 2 (1000 µM to below 4000 µM), 3 (4000 µM or more)

>>> print(df.to_string())
                                   compound  classification
0  O=C(NCCCO)c1cc(N(CCBr)CCBr)c([N+](=O)[O-])cc1[N+](=O)[O-]               1
1  CS(=O)(=O)c1cc([N+](=O)[O-])c(C(N)=O)cc1N(CCBr)CCBr               1

Input: State the class of the compound shown: `O=C(NCCCCN1CCOCC1)c1cc(N(CCCl)CCCl)c([N+](=O)[O-])cc1[N+](=O)[O-]`
Output: 2

Input: Bin this entry: `O=C(NO)c1cc(N(CCBr)CCBr)c([N+](=O)[O-])cc1[N+](=O)[O-]`
Output: 2

Input: Which solubility band matches `NCCNC(=O)c1cc(N(CCCl)CCCl)c([N+](=O)[O-])cc1[N+](=O)[O-]` ?
Output: 3

Input: For the record `O=C(NO)c1cc(N(CCCl)CCCl)c([N+](=O)[O-])cc1[N+](=O)[O-]` , report the class its solubility corresponds to.
Output: 2

Input: Band of `O=C(O)CCNC(=O)c1cc(N(CCBr)CCBr)c([N+](=O)[O-])cc1[N+](=O)[O-]` ?
Output: 3

Input: Exercise: read the entry `O=C(NCCN1CCOCC1)c1cc(N(CCCl)CCCl)c([N+](=O)[O-])cc1[N+](=O)[O-]` and state which class it falls under.
Output: 3

Input: Note: place this compound into its band. Item: `NC(=O)c1cc(N(CCCl)CCBr)c([N+](=O)[O-])cc1[N+](=O)[O-]`
Output: 1

---

# Test system: V79
# PROTOCOL: Clonogenic survival of 3% V79 NTRpuro cells in co-cultures with 97% V79 NTRoua after 5 hrs by MCL assay
# Assay type: functional, Cricetulus griseus
Recorded log10 Activity by entry
Please keep in mind that the values are log10 of Activity expressed in µM.

See these solved cases before continuing.
                                   compound  observed_value
0  CS(=O)(=O)c1cc([N+](=O)[O-])c(C(N)=O)cc1N(CCBr)CCBr            0.74
1  O=C(NCCO)c1cc(N(CCCl)CCCl)c([N+](=O)[O-])cc1[N+](=O)[O-]            1.98
2  CS(=O)(=O)OCCN(CCI)c1cc(C(N)=O)c([N+](=O)[O-])cc1[N+](=O)[O-]            0.62
3  CS(=O)(=O)OCCN(CCBr)c1cc(C(N)=O)c([N+](=O)[O-])cc1[N+](=O)[O-]            0.30
4  CS(=O)(=O)OCCN(CCCl)c1cc(C(N)=O)c([N+](=O)[O-])cc1[N+](=O)[O-]            0.72
5  CS(=O)(=O)c1cc([N+](=O)[O-])c(C(N)=O)cc1N(CCCl)CCCl            2.20
6  NC(=O)c1cc(N(CCCl)CCCl)c([N+](=O)[O-])cc1[N+](=O)[O-]            1.99
7  CS(=O)(=O)OCCN(CCBr)c1cc(C(=O)NCC(O)CO)c([N+](=O)[O-])cc1[N+](=O)[O-] (stereo not drawn)            1.85

Input: # lookup: log10 Activity of `O=C(NCCN1CCOCC1)c1cc(N(CCCl)CCCl)c([N+](=O)[O-])cc1[N+](=O)[O-]`
Output: 3.18

Input: Give the measured log10 Activity of O=C(NCC(O)CO)c1cc(N(CCI)CCI)c([N+](=O)[O-])cc1[N+](=O)[O-] (stereo not drawn) .
Output: 1.10

Input: Given the compound O=C(NCC(O)CO)c1cc(N(CCCl)CCCl)c([N+](=O)[O-])cc1[N+](=O)[O-] (stereo not drawn) , what is its reported log10 Activity?
Output: 1.98

Input: Entry `O=C(NCCCO)c1cc(N(CCCl)CCCl)c([N+](=O)[O-])cc1[N+](=O)[O-]` has what log10 Activity?
Output: 1.98

Input: Form field: reported log10 Activity of `O=C(NCCO)c1cc(N(CCI)CCI)c([N+](=O)[O-])cc1[N+](=O)[O-]`
Output: 0.74

FYI, the data here is from ChEMBL document CHEMBL1142960.
